Kd values, listed per item
B1: type 2 EBNA2 polypeptide T2 EBNA2_(348-422) [Epstein-Barr virus type 2 (AG876)] / BS69 coiled-coil MYND domain (BS69_(CC-MYND), amino acids 480-602) [human] (parent)
chain 1: SMPQLSPVVSLHQGQGPENSPTPGPSTAGPVCRVTPSATPDISPIHEPESSDSEEPPFLFPSDWYPPTLEPAELD
chain 2: DRMKSDHKRETERVVREALEKLRSEMEEEKRQAVNKAVANMQGEMDRKCKQVKEKCKEEFVEEIKKLATQHKQLISQTKKKQWCYNCEEEAMYHCCWNTSYCSIKCQQEHWHAEHKRTCRRKR

Variants of: B1
Test: ITC
Conditions: with BS69 coiled-coil MYND domain (BS69_(CC-MYND), amino acids 480-602) [human]; binding event 2 (KD2), two-site model; 29 injections of 1.3 μl 0.3 mM EBNA2 polypeptide and 0.1 mM BS69CC-MYND in the cell; parent: 91 nM
Output spec: scalar in nM, unitless text.

- VARIANT SPEC: "chain 1 S62D P67A L69A P71A"
  RESULT UNIT: "nM"
  Kd: 200

Reported Kd for chain 1 S62D : what is it? 94
